- SYSTEM_UNDER_TEST: ERR1 (also known as ERR-α or ERR-1) (Homo sapiens)
- ASSAY: TR-FRET assay (disruption of co-activator peptide binding)
- ASSAY_SETUP: 6His-tagged ERR1LBD, GST-hSRC2 co-activator peptide; average of 3 independent experiments
// reported pEC50 for each item listed
Scale for pEC50: -log10 of concentration given in mol/L; no unit attached.

Some compounds with known pEC50 results, for comparison:
>>> df
                           structure_string  experimental_endpoint  data_value
0  CONC(=O)[C@H]1C[C@H](N(C)C2=NC(=O)/C(=C/c3ccc4c(cnn4Cc4ccc(Cl)cc4C(F)(F)F)c3)S2)CN1                  pEC50        7.60
1  CN(CC(=O)O)C1=NC(=O)/C(=C/c2ccc3c(cnn3Cc3ccc(Cl)cc3C(F)(F)F)c2)S1                  pEC50        7.89
2  CN(C1=NC(=O)/C(=C/c2ccc3c(cnn3Cc3ccc(C(F)(F)F)cc3C(F)(F)F)c2)S1)[C@@H]1CCN(CC(N)=O)C1                  pEC50        7.82

Next up:
For CN(Cc1cccnc1)C1=NC(=O)/C(=C/c2ccc3c(cnn3Cc3ccc(Cl)cc3C(F)(F)F)c2)S1 the compound record lists pEC50 as 7.66

====

- SYSTEM_UNDER_TEST: ERR1 (also known as ERR-α or ERR-1) (Homo sapiens, UniProt P11474)
- ASSAY: TR-FRET assay (disruption of co-activator peptide binding)
- ASSAY_SETUP: 6His-tagged ERR1LBD, GST-hSRC2 co-activator peptide; average of 3 independent experiments
EXPERIMENTAL_ENDPOINT: EC50 (nM)
Numeric answer only, unit nM assumed.

// worked examples, EC50 included
>>> df
                                   compound   u  data_value
0  CN(C1=NC(=O)/C(=C/c2ccc3c(cnn3Cc3ccc(Cl)cc3C(F)(F)F)c2)S1)[C@@H]1CCN(CC(N)=O)C1  nM          15
1  CON(C)C1=NC(=O)/C(=C/c2ccc3c(cnn3Cc3ccc(Cl)cc3C(F)(F)F)c2)S1  nM          24
2  CN(CCO)C1=NC(=O)/C(=C/c2ccc3c(cnn3Cc3ccc(Cl)cc3C(F)(F)F)c2)S1  nM          12
3  CN(C1=NC(=O)/C(=C/c2ccc3c(cnn3Cc3ccc(C(F)(F)F)cc3C(F)(F)F)c2)S1)C1CN[C@H](CO)C1 (stereo partly shown)  nM          30
4  CN(CCN1CCOCC1)C1=NC(=O)/C(=C/c2ccc3c(cnn3Cc3ccc(Cl)cc3C(F)(F)F)c2)S1  nM          21

Switching to the query record.
Case CN(C1=NC(=O)/C(=C/c2ccc3c(cnn3Cc3ccc(Cl)cc3C(F)(F)F)c2)S1)[C@H]1CCN(CC(N)=O)C[C@H]1F , ERR1 (also known as ERR-α or ERR-1) (Homo sapiens, UniProt P11474), EC50 recorded as 13

====

- SYSTEM_UNDER_TEST: ERR1 (also known as ERR-α or ERR-1) (Homo sapiens, UniProt P11474)
- Sequence (P11474 193-421 limits assumed): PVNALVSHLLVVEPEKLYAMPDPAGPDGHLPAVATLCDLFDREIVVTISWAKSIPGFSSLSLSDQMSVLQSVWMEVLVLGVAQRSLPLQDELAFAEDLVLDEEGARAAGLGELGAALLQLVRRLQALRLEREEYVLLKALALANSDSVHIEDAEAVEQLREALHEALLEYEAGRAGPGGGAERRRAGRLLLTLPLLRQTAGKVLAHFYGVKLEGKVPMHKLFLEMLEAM
- ASSAY: TR-FRET assay (disruption of co-activator peptide binding)
- ASSAY_SETUP: 6His-tagged ERR1LBD, GST-hSRC2 co-activator peptide; average of 3 independent experiments
- Protocol: Time-Resolved Fluorescence Resonance Energy Transfer (TR-FRET) experiments were performed to examine the functional response of ERR1 (also known as ERR-α or ERR-1) ligands. The TR-FRET assay described herein relied on the conformation of ERR1 for binding to a co-activator peptide: when a test compound binds to ERR1 and alters its conformation, it can disrupt the binding of the co-activator peptide. […]
EXPERIMENTAL_ENDPOINT: EC50 (nM)
Write it as a number; the unit nM goes unstated.

>>> print(df.to_string())
                                   molecule   u  data_value
0  COC[C@@H]1CC(N(C)C2=NC(=O)/C(=C/c3ccc4c(cnn4Cc4ccc(C(F)(F)F)cc4C(F)(F)F)c3)S2)CN1 (stereo partly shown)  nM          21

Summary line: CN(C)CCN(C)C1=NC(=O)/C(=C/c2ccc3c(cnn3Cc3ccc(C(F)(F)F)cc3C(F)(F)F)c2)S1 , ERR1 (also known as ERR-α or ERR-1) (Homo sapiens, UniProt P11474), reported EC50 = 7

The molecule CN(CCCn1cccn1)C1=NC(=O)/C(=C/c2ccc3c(cnn3Cc3ccc(Cl)cc3C(F)(F)F)c2)S1 on ERR1 (also known as ERR-α or ERR-1) (Homo sapiens, UniProt P11474): EC50 was 13

The measured EC50 that CN(CC(O)CO)C1=NC(=O)/C(=C/c2ccc3c(cnn3Cc3ccc(S(C)(=O)=O)cc3C(F)(F)F)c2)S1 (stereo not shown) showed for ERR1 (also known as ERR-α or ERR-1) (Homo sapiens, UniProt P11474) is 520

Lab note: molecule CN(C1=NC(=O)/C(=C/c2ccc3c(cnn3Cc3ccc(C(F)(F)F)cc3C(F)(F)F)c2)S1)C1CCNCC1 tested on ERR1 (also known as ERR-α or ERR-1) (Homo sapiens, UniProt P11474); recorded EC50 was 37

Assay ERR1 (also known as ERR-α or ERR-1) (Homo sapiens, UniProt P11474), sample CN1CCN(CCN(C)C2=NC(=O)/C(=C/c3ccc4c(cnn4Cc4ccc(Cl)cc4C(F)(F)F)c3)S2)CC1 , EC50 read: 9

Here CCN(CC)CCN(C)C1=NC(=O)/C(=C/c2ccc3c(cnn3Cc3ccc(Cl)cc3C(F)(F)F)c2)S1 was tested on ERR1 (also known as ERR-α or ERR-1) (Homo sapiens, UniProt P11474), and its EC50 came to 15

====

compounds and their reported pEC50
- SYSTEM_UNDER_TEST: ERR1 (also known as ERR-α or ERR-1) (Homo sapiens)
- ASSAY: TR-FRET assay (disruption of co-activator peptide binding)
- ASSAY_SETUP: 6His-tagged ERR1LBD, GST-hSRC2 co-activator peptide; average of 3 independent experiments
To interpret pEC50, take it as minus log10 of a concentration measured in moles per litre.

# annotated cases, reported pEC50 shown
                                   compound                         system_under_test  data_value
0  CN(CC(O)CO)C1=NC(=O)/C(=C/c2ccc3c(cnn3Cc3ncc(C(F)(F)F)cc3Cl)c2)S1 (stereo not shown) [Compound 11]  ERR1 (also known as ERR-α or ERR-1) (Homo sapiens)        5.80
1  CN(C1=NC(=O)/C(=C/c2ccc3c(cnn3Cc3ccc(C(F)(F)F)cc3C(F)(F)F)c2)S1)[C@H]1C[C@@H](CO)N(CC(N)=O)C1 [Compound 59]  ERR1 (also known as ERR-α or ERR-1) (Homo sapiens)        7.57

According to the records, this compound CN(CC(=O)O)C1=NC(=O)/C(=C/c2ccc3c(cnn3Cc3ccc(C(F)(F)F)cc3C(F)(F)F)c2)S1 [Compound 58] displays pEC50 of 7.42

For this compound ( COCCN1CCC(CN(C)C2=NC(=O)/C(=C/c3ccc4c(cnn4Cc4ccc(Cl)cc4C(F)(F)F)c3)S2)C1 (stereo not shown) [Compound 47] ), measured pEC50 is 7.77

Looking up CN(CC(O)CN1CCCC1)C1=NC(=O)/C(=C/c2ccc3c(cnn3Cc3ccc(Cl)cc3C(F)(F)F)c2)S1 (stereo not shown) [Compound 50] , I see its pEC50 listed as 7.64

Record CN(C1=NC(=O)/C(=C/c2ccc3c(cnn3Cc3ccc(Cl)cc3C(F)(F)F)c2)S1)C1CNC1 [Compound 48] , field pEC50: 7.37

Summary for this compound, O=C1N=C(N(CCO)CCO)S/C1=C\c1ccc2c(cnn2Cc2ncc(C(F)(F)F)cc2Cl)c1 [Compound 12] : pEC50 is 5.41

====

- SYSTEM_UNDER_TEST: ERR1 (also known as ERR-α or ERR-1) (Homo sapiens, UniProt P11474)
- ASSAY: TR-FRET assay (disruption of co-activator peptide binding)
- ASSAY_SETUP: 6His-tagged ERR1LBD, GST-hSRC2 co-activator peptide; average of 3 independent experiments
Below is a list of entries, each paired with its recorded pEC50 value.
# pEC50: negative log10 of molar concentration; output just the value

Worked examples follow.
In [3]: df
Out[3]:
                                   molecule  data_value
0  CCN(CC)CCN(C)C1=NC(=O)/C(=C/c2ccc3c(c2)c(I)nn3Cc2ccc(C(F)(F)F)cc2C(F)(F)F)S1 [Compound 51]        7.96
1  N#Cc1ccc(Cn2ncc3cc(/C=C4\SC(N(CCO)CCO)=NC4=O)ccc32)c(C(F)(F)F)c1 [Compound 3]        6.92
2  COC[C@@H]1CC(N(C)C2=NC(=O)/C(=C/c3ccc4c(cnn4Cc4ccc(C(F)(F)F)cc4C(F)(F)F)c3)S2)CN1C (stereo partly shown) [Compound 44]        7.49

The recorded pEC50 for entry CN1CCC(N(C)C2=NC(=O)/C(=C/c3ccc4c(cnn4Cc4ccc(Cl)cc4C(F)(F)F)c3)S2)CC1 [Compound 19] equals 8.09
